Catalogue of residual activity values
# Target or system: NEK2 (human)
# Method: radiometric filter-binding kinase assay
# Test settings: compound 1.0 µM

Molecule: Cn1nc(Nc2ccc(F)cc2)c2c(N)ncnc21
Unit spec: %
residual activity: 102
--
Molecule: NC(=O)c1c(NC(=O)C2CC2)sc2c1CCCC2
Unit spec: %
residual activity: 99
--
Molecule: Oc1ccc(/C=C/c2cc(O)cc(O)c2)cc1
Unit spec: %
residual activity: 96
--
Molecule: Nc1cccc2c1CN(C1CCC(=O)NC1=O)C2=O (stereo unspecified)
Unit spec: %
residual activity: 97
--
Molecule: O=C(NCCCNc1nc(Nc2cccc(CN3CCOCC3)c2)ncc1C1CC1)C1CCC1
Unit spec: %
residual activity: 97
--
Molecule: COc1ccc(-n2ncc3cnc(Nc4cc(OC)c(OC)c(OCCCN5CCN(C)CC5)c4)nc32)cc1
Unit spec: %
residual activity: 3
--
Molecule: O=C(NOC[C@H](O)CO)c1ccc(F)c(F)c1Nc1ccc(I)cc1Cl
Unit spec: %
residual activity: 97
--
Molecule: Cc1cc(NC(=O)c2cccc(NC(=O)/C=C/CN(C)C)c2)ccc1Nc1nccc(-c2cccnc2)n1
Unit spec: %
residual activity: 100
--
Molecule: O=C(Nc1ccccc1-c1cn2c(CN3CCNCC3)csc2n1)c1cnc2ccccc2n1
Unit spec: %
residual activity: 95
--
Molecule: Cc1ccc(-c2ccc3c(ccc4sc5c(c43)NC[C@@H](C)NC5=O)n2)cn1
Unit spec: %
residual activity: 99
--
Molecule: O=C1NC(=S)N[C@@H]1Cc1c[nH]c2ccccc12
Unit spec: %
residual activity: 87
--
Molecule: CCNc1nc(Nc2cc(F)c(C(=O)N3CCOCC3)cc2OC)ncc1C(F)(F)F
Unit spec: %
residual activity: 99
--
Molecule: NC1(c2ccc(-c3nc4ccn5c(=O)[nH]nc5c4cc3-c3ccccc3)cc2)CCC1
Unit spec: %
residual activity: 87
--
Molecule: N#Cc1c(C2CCNCC2)cc(-c2c(O)cccc2OCC2CC2)nc1N
Unit spec: %
residual activity: 85
--
Molecule: O=C(NOCC(O)CO)c1ccc(F)c(F)c1Nc1ccc(I)cc1Cl (stereo unspecified)
Unit spec: %
residual activity: 98
--
Molecule: COc1ccc(N(C(=O)Nc2c(C)cccc2C)c2cc(Nc3ccc(N4CCN(C)CC4)cc3)ncn2)c(OC)c1
Unit spec: %
residual activity: 95
--
Molecule: NC(=O)c1ccc(-c2ccc(Oc3cncc4sc(-c5nn[nH]n5)cc34)cc2)cc1
Unit spec: %
residual activity: 94
--
Molecule: CCCC(CCC)C(=O)O
Unit spec: %
residual activity: 79
--
Molecule: COc1cc(O)c2c(c1)[C@H]1OC1C[C@H](O)[C@H](O)C(=O)/C=C\C[C@H](C)OC2=O (stereo partly specified)
Unit spec: %
residual activity: 105
--
Molecule: Cc1cc(SCc2sc(-c3ccc(C(F)(F)F)cc3)nc2C)ccc1OCC(=O)O
Unit spec: %
residual activity: 94
--
Molecule: CCc1cncnc1N1CCN(Cc2nc3cc(C(F)(F)F)ccc3[nH]2)CC1
Unit spec: %
residual activity: 94

----------
# Target or system: NUAK1 (human)
# Method: radiometric filter-binding kinase assay
# Test settings: compound 0.1 µM
Readout: residual activity (%)

Compound: Cc1cccc(-c2nn(C(=S)Nc3ccccc3)cc2-c2ccnc3ccccc23)n1
Target or system: NUAK1 (human)
Readout: residual activity
Unit spec: %
Readout number: 96

Compound: CN(C)C/C=C/C(=O)Nc1cccc(C(=O)Nc2ccc(Nc3nccc(-c4cccnc4)n3)cc2)c1
Target or system: NUAK1 (human)
Readout: residual activity
Unit spec: %
Readout number: 35

Compound: CN1CCN(CCOc2cc(OC3CCOCC3)c3c(Nc4c(Cl)ccc5c4OCO5)ncnc3c2)CC1
Target or system: NUAK1 (human)
Readout: residual activity
Unit spec: %
Readout number: 95

Compound: CNc1nc(-c2ccc3c(N)n[nH]c3c2)cc(N2C[C@@H](C(=O)NC3CCCCC3)CC[C@H]2C)n1
Target or system: NUAK1 (human)
Readout: residual activity
Unit spec: %
Readout number: 105

Compound: C=CC(=O)N1CCC[C@@H](n2nc(-c3ccc(Oc4ccccc4)cc3)c3c(N)ncnc32)C1
Target or system: NUAK1 (human)
Readout: residual activity
Unit spec: %
Readout number: 99

Compound: NC1(c2ccc(-c3nc4ccn5c(=O)[nH]nc5c4cc3-c3ccccc3)cc2)CCC1
Target or system: NUAK1 (human)
Readout: residual activity
Unit spec: %
Readout number: 101

Compound: c1ccc2c(-c3cnn4cc(-c5ccc(N6CCNCC6)cc5)cnc34)ccnc2c1
Target or system: NUAK1 (human)
Readout: residual activity
Unit spec: %
Readout number: 57

Compound: O=C(N[C@@H](COc1ccc2[nH]c(=O)[nH]c2c1)c1ccccc1)c1cccn(Cc2ccc(F)c(F)c2)c1=O
Target or system: NUAK1 (human)
Readout: residual activity
Unit spec: %
Readout number: 115

Compound: NC(=O)c1cc2c(-c3cccc(-c4ccccc4)c3)cnc(N)c2s1
Target or system: NUAK1 (human)
Readout: residual activity
Unit spec: %
Readout number: 81

Compound: O=C(Nc1nc2cc(C(F)(F)F)cc(NC3CC3)n2n1)c1cccnc1
Target or system: NUAK1 (human)
Readout: residual activity
Unit spec: %
Readout number: 116

Compound: CCCCCc1ccc(/C=C/[C@H](O)[C@@H](CO)NC)cc1
Target or system: NUAK1 (human)
Readout: residual activity
Unit spec: %
Readout number: 105

Compound: O=C(NCCCNc1nc(Nc2cccc(CN3CCOCC3)c2)ncc1C1CC1)C1CCC1
Target or system: NUAK1 (human)
Readout: residual activity
Unit spec: %
Readout number: 47

Compound: CCn1c(-c2nonc2N)nc2cncc(CNC3CCNCC3)c21
Target or system: NUAK1 (human)
Readout: residual activity
Unit spec: %
Readout number: 101

Compound: COc1cc(O)c2c(c1)/C=C/C[C@H](O)[C@H](O)C(=O)/C=C\C[C@H](C)OC2=O
Target or system: NUAK1 (human)
Readout: residual activity
Unit spec: %
Readout number: 113

Compound: COc1cc(O)c2c(c1)[C@H]1OC1C[C@H](O)[C@H](O)C(=O)/C=C\C[C@H](C)OC2=O (some centres undefined)
Target or system: NUAK1 (human)
Readout: residual activity
Unit spec: %
Readout number: 99

Compound: CNC(=O)C1[C@H]2O[C@@](C)([C@@H]1N)n1c3ccccc3c3c4c(c5c6ccccc6n2c5c31)C(=O)NC4 (some centres undefined)
Target or system: NUAK1 (human)
Readout: residual activity
Unit spec: %
Readout number: 2

Compound: O=C(O)c1ccc(-c2c[nH]c3ncc(-c4ccccc4)cc23)cc1C1CCCC1
Target or system: NUAK1 (human)
Readout: residual activity
Unit spec: %
Readout number: 45

Compound: COc1ccc(N(C(=O)Nc2c(C)cccc2C)c2cc(Nc3ccc(N4CCN(C)CC4)cc3)ncn2)c(OC)c1
Target or system: NUAK1 (human)
Readout: residual activity
Unit spec: %
Readout number: 93

Compound: Cc1ccc(Sc2cnc(Nc3cccc(Br)n3)s2)cc1C(=O)N1CCN(C(=O)CN)CC1
Target or system: NUAK1 (human)
Readout: residual activity
Unit spec: %
Readout number: 40
